# measured-target: human PAD4 (hPAD4) (Homo sapiens, UniProt Q9UM07)
# Sequence (Q9UM07 whole entry): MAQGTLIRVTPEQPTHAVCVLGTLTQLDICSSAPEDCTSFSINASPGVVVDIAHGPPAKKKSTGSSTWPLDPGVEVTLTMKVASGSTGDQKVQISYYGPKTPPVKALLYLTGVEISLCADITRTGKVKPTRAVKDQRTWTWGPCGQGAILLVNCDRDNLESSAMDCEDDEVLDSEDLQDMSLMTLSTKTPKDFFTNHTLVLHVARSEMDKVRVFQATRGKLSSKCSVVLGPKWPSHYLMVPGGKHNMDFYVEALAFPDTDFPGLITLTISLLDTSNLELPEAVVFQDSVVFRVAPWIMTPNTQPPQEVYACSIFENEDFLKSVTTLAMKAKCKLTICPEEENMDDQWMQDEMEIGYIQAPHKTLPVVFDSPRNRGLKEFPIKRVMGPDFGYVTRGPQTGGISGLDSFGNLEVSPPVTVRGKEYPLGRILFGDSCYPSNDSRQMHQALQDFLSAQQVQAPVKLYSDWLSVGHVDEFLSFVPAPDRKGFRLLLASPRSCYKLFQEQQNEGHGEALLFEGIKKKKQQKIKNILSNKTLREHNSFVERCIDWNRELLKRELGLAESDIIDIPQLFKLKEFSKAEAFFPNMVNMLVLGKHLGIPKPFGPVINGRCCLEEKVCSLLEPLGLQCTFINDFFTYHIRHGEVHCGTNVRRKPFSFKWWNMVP
# protocol-details: RFMS Human PAD4 Functional Assay
# Format: biochemical
# test-parameters: human PAD4, rapid-fire mass spectrum (RFMS) assay; 5 nM hPAD4, 250 μM BAEE; read-out: hPAD4 RFMS IC50
readout-name: IC50 (µM)

# molecule, value-reported
rows = [
    ("CNC(=O)C1CC(c2cccc3cc(-c4nc5cc(C(=O)N6C[C@H]7CC[C@@H]6[C@@H]7N)cc(OC)c5n4C)n(CC4CC4)c23)C1 (single isomer, unassigned) [Example 44]", 0.048),
    ("COc1cc(C(=O)N2C[C@H]3CC[C@@H]2[C@@H]3N)cc2nc(-c3cc4cccc(C(N)=O)c4n3CC3CC3)n(C)c12", 0.074),
    ("COc1cc(C(=O)N2C[C@H]3CC[C@@H]2[C@@H]3N)cc2nc(-c3cc4cccc(-c5cn(CCO)nn5)c4n3CC3CC3)n(C)c12 (stereo in doubt)", 0.073),
    ("COc1cc(C(=O)N2C[C@H]3CC[C@@H]2[C@@H]3N)cc2nc(-c3cc4cccc(-c5ccccc5)c4n3CC3CC3)n(C)c12", 0.299),
    ("COc1cc(C(=O)N2C[C@H]3CC[C@@H]2[C@@H]3N)cc2nc(-c3cc4cc(C)ccc4n3CC3CC3)n(C)c12", 0.135),
    ("COc1cc(C(=O)N2C[C@H]3CC[C@@H]2[C@@H]3N)cc2nc(-c3cc4cccc(C5CN(S(C)(=O)=O)C5)c4n3CC3CC3)n(C)c12", 0.031),
]

Reference source for all entries: patent US20220402950A1
